- test-target: recombinant human ALK5 (TGF-βR1) protein (Homo sapiens)
- Sequence (P36897 34-503): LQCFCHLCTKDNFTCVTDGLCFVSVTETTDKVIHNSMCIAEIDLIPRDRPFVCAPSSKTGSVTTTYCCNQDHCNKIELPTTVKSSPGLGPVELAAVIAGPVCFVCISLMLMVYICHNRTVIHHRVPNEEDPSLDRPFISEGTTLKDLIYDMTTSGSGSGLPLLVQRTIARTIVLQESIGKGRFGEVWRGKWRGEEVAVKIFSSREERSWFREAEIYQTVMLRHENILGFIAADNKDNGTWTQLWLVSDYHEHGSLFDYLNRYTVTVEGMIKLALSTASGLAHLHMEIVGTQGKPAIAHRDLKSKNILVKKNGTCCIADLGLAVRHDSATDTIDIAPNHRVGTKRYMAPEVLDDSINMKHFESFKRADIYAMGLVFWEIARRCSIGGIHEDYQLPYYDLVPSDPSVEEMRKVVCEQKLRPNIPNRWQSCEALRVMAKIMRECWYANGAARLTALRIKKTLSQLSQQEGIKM
- method-description: Biochemical ALK5 (TGF-βR1) assay to measure pKi (LANCE Ultra ULight kinase assay)
- measurement-context: apparent pKi, converted from pIC50 by Cheng-Prusoff
parameter: Ki

[[record]]
compound = "Cc1cccc(-c2nccc(Nc3ccnc(Nc4nc(CN5CCN[C@@H](CO)C5)cs4)n3)n2)n1"
parameter = "Ki"
observed_measurement = "398 to 3160 pM"

[[record]]
compound = "Cc1cccc(-c2nccc(Nc3ccnc(Nc4cccc(C(=O)OC5CNC5)c4)n3)n2)n1"
parameter = "Ki"
observed_measurement = "39.8 to 316 pM"

[[record]]
compound = "Cc1cccc(-c2nccc(Nc3ccnc(Nc4ccc(N(C)CC5CNC5)cc4)n3)n2)n1"
parameter = "Ki"
observed_measurement = "39.8 to 316 pM"

[[record]]
compound = "Cc1cccc(-c2nccc(Nc3ccnc(Nc4ccc(C(=O)OCCN5CCNCC5)cn4)n3)n2)n1"
parameter = "Ki"
observed_measurement = "3980 to 31600 pM"


## Input Look at this compound and give its reported Ki. Cc1cccc(-c2nccc(Nc3ccnc(Nc4ccc(N5C[C@H]6CC[C@@H](C5)N6)cc4)n3)n2)n1
## Output 39.8 to 316 pM

## Input Look at this compound and give its reported Ki. COC(=O)CC1CN(Cc2ccc(Nc3nccc(Nc4ccnc(-c5cccc(C)n5)n4)n3)cc2)CCN1 (stereo not shown)
## Output 39.8 to 316 pM

## Input Look at this compound and give its reported Ki. Cc1cccc(-c2nccc(Nc3ccnc(Nc4ccc(CO)cc4)n3)n2)n1
## Output 398 to 3160 pM

## Input Look at this compound and give its reported Ki. Cc1cccc(-c2nccc(Nc3ccnc(Nc4ccc(N5CCCC(C(=O)OC6CNC6)C5)cc4)n3)n2)n1 (stereo not shown)
## Output 39.8 to 316 pM

## Input Look at this compound and give its reported Ki. Cc1cccc(-c2nccc(Nc3ccnc(Nc4cccc(S(=O)(=O)N(C)C5CCNCC5)c4)n3)n2)n1
## Output 3980 to 31600 pM

## Input Look at this compound and give its reported Ki. Cc1cccc(-c2nccc(Nc3ccnc(Nc4nc(CN5CC(C(=O)O)C5)cs4)n3)n2)n1
## Output 39.8 to 316 pM

## Input Look at this compound and give its reported Ki. Cc1cccc(-c2nccc(Nc3ccnc(Nc4ccc(NC(=O)C5CCNCC5)cc4)n3)n2)n1
## Output 39.8 to 316 pM

## Input Look at this compound and give its reported Ki. Fc1ccc(Cl)cc1-c1nccc(Nc2ccnc(Nc3ccc(CN4CCOCC4)cc3)n2)n1
## Output 3980 to 31600 pM

## Input Look at this compound and give its reported Ki. Cc1cccc(-c2nccc(Nc3ccnc(Nc4csc(C(=O)NCC5(CO)CNC5)c4)n3)n2)n1
## Output ≤ 31.6 pM

## Input Look at this compound and give its reported Ki. Cc1cccc(-c2nccc(Nc3ccnc(Nc4ccc(NCCN5CCNCC5)cc4)n3)n2)n1
## Output 39.8 to 316 pM

## Input Look at this compound and give its reported Ki. Cc1cccc(-c2nccc(Nc3ccnc(Nc4ccc(CCN(C)C)cc4)n3)n2)n1
## Output 39.8 to 316 pM

## Input Look at this compound and give its reported Ki. Cc1cccc(-c2nc(Nc3ccnc(Nc4ccc(C(=O)N5CCNCC5)cc4)n3)c3cccn3n2)n1
## Output 39.8 to 316 pM
